From: the nanobody polyreactivity screen of Harvey et al. (2022)

# runDescription: yeast display, Sf9 membrane polyspecificity reagent, FACS + sequencing; frameworks hold sequencing errors

itemSequence	polyreactivity (PSR sort gate)
QVQLVESGGGLVQAGGSLRLSCAASGITFSYYTLGWYRQAPGKERELFARINSGGTTNYADSVKGRFTISRDNAKNTVYLQMNSLKPEDTAVYYCAAEWVSWRWAHKFDYWGQGTQVTVSS	high polyreactivity
QVQLVESGGGLVQAGGSLRLSCAASGRIFGPYAMGWYRQAPGKERELVAAISFSGSGTYYADSVKGRFTISRDNAKNTVYFQMNSLKPEDTAVYYCAATSRKIVAYDHDYWGQGTQVTVSS	low polyreactivity
QVQLVESGGGLVQAGGSLRLSCAASRSIFLYYAMGWYRQAPGKERELVAAISYSGSGTYADSVKGRFTISRDNAKNTVYLQMNSLKPEDTAVYYCNVDYGSYSYDYWGQGTQVTVSS	low polyreactivity
QVQLVESCGCLVQAGGSLRLSCAASGIIFFPYAMGWYRQAPGKEREFVAAITSRRGSTYYADSVKGRFTISRDNPKNTVYLQMNILKPEDTAVYYCAAAWCAPSRFFSAFDYWGQGTQVTVSS	low polyreactivity
QVQLVESGGGLVQAGGSLRLSCAASGSIFVSNTMGWYRQAPGKEREMVASIRETAGSTNYADSVKGRFTISRDYAKNTFYLQMNSLKPEDTAVYYCAARYSPTRYHYGYWGQGTQVTVSS	low polyreactivity
QVQLEESGGGLVQAGGSLRLSCAASGSILIYNAMGLYRQATGKERELVAGISRRGASTYYADSVKGRFTISRDYAKNTVYLQMNSLKPEDTAVYYCATRKLRTRGYDYGYWGQGTQVTVSS	low polyreactivity
QVQLVESGGGLVQAGGSLRLSCAASGSIFKSYAMGWYRQAPGKERELVAAISWSGTSTYYADSVKGRFTISRDHAKNTVYLQMNSLKPEDTAVYYCAASGDYGEYGYWGQGTQVTVSS	low polyreactivity
QVQLVESGGGLVQAGGSLRLSCAASGIIFGYYAMGWYRQAPGKERELVAAISWSGVSTYYADSVKGRFTISRDNAKNTVYLQMHSLKPEDTAVYYCAVGYVLTGVFQARFDYWGQGTQVTVSS	high polyreactivity
QVQLVESGGGLVQAGGSLRLSCAASGSIFNANAMGWYRQAPGNERELVAGIRSGSSTNYADSVKGRFTISRDNAKNTVYLQMNSLKPEDTAVYYCATEGYWVYGFDDEYWGQGTQVTVSS	low polyreactivity
QVQLVESGGGLVHAGGSLRLSCAACGRTFGRYPMGSYRQAPGKERELVAAITVGGGSTYYADSVKGRFTISRDYAKNTVYLQMNSLKPEDTAVYYCNALHTYTYRYDYYYWGQGTQVTVSS	high polyreactivity
QVQLVESVGGLVQAGGSLRLSCSASGITFSYNAMGWYRQAPGKERELVAAISDIGGSTYYADSVKGRFTISRDNAKNTVYLQMNSLKPEDTAVYYCAADEYYQDEYDYWGQGTQVTVSS	low polyreactivity
QVQHVESGGGIVQAGGSLRLSCAASGIIFIGNAMGWYRQAPGKERELVAAITYTGGSTYYADSVKGRFTISRDNAKNTVYLQMNSLKPEDTAVYYCAVDRTHLEDDYWGQGTQVTVSS	low polyreactivity
QDQLVESGGGLVQAGGSLRLSCAASGPIFLVKTMGCYIQAPGKERELVADITWRGGDTYYADSVKGRFTISRDNAKNTDYLQMNSLKPEDTAVYYCAARGLGYGYERYRLGYWGQGTQVTVSS	high polyreactivity
QVQLVESGGGLVQAGGSLRLSCAASGSTFRFYAMGWYRQAPGKERELVAGITGSGDSTYYADSVKGRFTISRDNAKNTVYLQMNSLKPEDTAVYYCNKRVVYRSSQFDYWGQGTQVTVSS	low polyreactivity
QVQLVESGGGLVQAGGSLRLSCAASGSTFRRYAMGWYRQAPGKEREMVAGITYGSTYYADSVKGRFTISRDNAKNTVYLLMNSLKPEDTAVYYCAADLSYTSVHGYRSDTLMDYWGQGTQVTVSS	low polyreactivity
QVQLVESGGGLVQAGGSLRLRCAASGSTFGGYAMGWYRQAPGKERELVAAISRRGGRTYYADSVKGRFRISRDNAKNTVYLQRNSLKPEDTAVYYSAADWSYVRYYYWGQGTQVTVSS	high polyreactivity
QVQLVESGGGLVQAGGSLRLSCAASGHTFSSYAMGWYRQAPGKERELVAAISVSATRTYYADSVKGRFTISRDNAKNTVYLQMNSLKPEDTAVYYCAARPVQFTYGYWGQGTQVTVSS	high polyreactivity
QVQLVESGGGLVQAGGSLRLSCAASGIIIYYNTMGWYRQAPGKEREFVDAISNSGGRTYYADSVKGRFTISRDNAKNTVYLQMNSLKPEDTADYYCAATYRQYSRSPWYYYCGQGTQVTVSS	high polyreactivity
QVQLVESGGGLVQAGGSLRLSCAASGFTFSSNAMGWSRPAPGKERELVAGITWSGGSTYYADSVKGRFTISRDNAKNTVYLQMNRLKPEDTAVYYCNFRYNASQYDYVYWGQGTQVTVSS	low polyreactivity
QEQLVESGGGLVQAGGSLGLSCAASGLTFSYYAMRWYRQAPGKERELVAAIDYSGGTTYADSVKGRFTISRDNAKNTVYLQMNSLKPEDTAVYYCAAAPDGWFASGDEYWGQGTQVTVSS	high polyreactivity
QVQLVESGGGLVQAGGSLRLSCSASGSISGYYAMGWYRQAPGKERELVASIRYTGARTYYADSVKGRFTISRDNAKNTVYLQMNSLKPEDTAVYYCAAERSWYTWFASDYDYWGQGTQVTVSS	low polyreactivity

====

# runDescription: yeast display, Sf9 membrane polyspecificity reagent, FACS + sequencing; frameworks hold sequencing errors
measurementKind: polyreactivity (PSR sort gate)

itemSequence	result
QDQLVESGGGLVQAVGSLRLSCAASGFTFYRNAMGWYRQAPGKERELVAAITWSGTSTYFADSVKGRFTISRDNAQNTVYLQLNSLKPEDTAVYYCNARGFQKSDPRGYLILNYWGQGTQVTVSS	high polyreactivity
QVQLVESGGGLVQAGGSLRLSCAASGGTLQGNAMGWYRQAPGKERELVAAISSRGGRTYYADSVKGRFTISRDNAKNTVYLQMNSLKPEDTAVYYCAAVQNGDSTLLRTKGGYWGQGTQVTVSS	high polyreactivity
QVQLVESGGGLVQAGGSLRLSCAASGIIFYYNAMGWYRPAPGNERELVAAISGRGGSTYYADSVKGRVTISRDNAKNTVYLQMTSLKPEDTAVYYCAAARVGSRYGYDYWGQGTQGTVSS	low polyreactivity
QVQLVESGGGLVQAGGSLRLSCAPSGIIFKGYAMGWSRQAPGKERELVAAISHNADSTYADSVKGRFTISRDNAKNTVYLQMNSLKPEDTAVYYCNADYLYHQTSRGKYYSWGQGTQVTVSS	low polyreactivity
QVQLGESGGGLVQAGGSLRLSSAASGRTFGSNAMGWYRQAPGKERELVAASSSTVSTNYADSEKGRFTISRDNAKNTVYLQMNSLKPEDTAVYYCNVTRHYSYVSEYDYWGQGTQVTVSS	low polyreactivity
QLQLVESGGGLVQAGGSLRLSCAASGRIFKEYAMGWYRQAPGQERELVAAISWRGGSTYYADSVKGRFTISRDNAKNTVNLQMNSLKPEDTAVYYCARVVSRNTHPYYHWGQVTQVTVSS	low polyreactivity
QVQLVESGGGLVQAGGSLRLSCAASGFIFRDYVMGWYRQAPGKERELVAAISYRDGSTYYADSVKGRFTISRDNAKNTVYLQMNSLKPEDTAVYYCNAPGYQGYEYWGQGTQVTVSS	low polyreactivity
QVQLVESGGGLVQAGGSLRLRCAAMGWYRQAPWKERELVAGITRDGNTYYADSVKGRFTISRDNAKNTVYLQMNSLKPEDTAVYYCAAKHPKKYSYWGQGTQVSVSS	low polyreactivity
QVQLVESGGGLVQAGGSLRLSCAASGRTFRVYTMGWYRQAPGKERELVAAISSRGGSTYYADSVKGRFTISRDNAKNTVYLQMNSLKPEDTAVYYCAAVSYYPARYGYWGQGTQVTVSS	high polyreactivity
QVQLVESGGGLVQAGGSLRLSCAASGSMFKNNAMGWYRQAPGKARELVAAISRSGGSTYYADSVKGRFTISRDNAKNTVYLPMNSLKPEDTAVYYCARDVDTHYPYAYDYWGQGTQVTVSS	high polyreactivity
QVQLVESGGGLVQAGGSLRLSCAASGFTFIKYAMGWYRQAPGKEREFVPTISWNGGNTYYADSVKGRFTISRYNAKNTVYLQMNSLKPEDTAVYYCAARVKYRTRGGTVVSYDYWGQGTQVTVSS	high polyreactivity

====

# runDescription: yeast display, Sf9 membrane polyspecificity reagent, FACS + sequencing; frameworks hold sequencing errors

itemSequence	polyreactivity (PSR sort gate)
QVQLVESGGGLVQAGGSLRLSCAASGRIFSWYTMGWYRQAPGKERELVASITTGGRTYYADSLKGRFTNSRDNAKNTVYLQMNSLKPEDTAVYSCIVLSTLFGYYRWGDYWGQGTQVTVSS	high polyreactivity
QVQLVESGGGLVQAGRSLRISCAASGYTFIYYPMGWYRPAPGKERELVATISIDGSTNYADSVKGRFTISRDNAKNTVYLQMNILKPEDTAVYYCNLERYEDYDYWGQGTQVTVSS	high polyreactivity
QVQLVESGGGFVQAGASLRLSCAASGSIFRIYAIGWYRQAPGKERELVAAIDSGGSTNYADSVKGRFTISRDNAKNTVYLQMNSLKPEDTAVYYCNVDAWWLSYSEYDYWGQGTQVTVSS	high polyreactivity
QVQLVESGGGLVQAGGSLRLSCAASGSIFDDYAMGWYRQAPGKERELVAAMSWSGGRTYYADSVKGRFTISRDYAKNTVYLQMNSLNPEDTAVYYCAATTGVRSRRYYYWGQGTLVTVSS	low polyreactivity
QVQLVESGGGLVQAGGSLRLSCAASGSIIAAYAMGWYRQAPGKERELVAAIRWNGGSTYYADSVKGRFTISRDNAKNTVYLQMISLKPEDTAVFYCAADYIYYPVYEFGYWGQGTQVTVSS	low polyreactivity
